meta.source: ChEMBL document CHEMBL1145214

# assayed target: GABA A receptor alpha-2/beta-2/gamma-2 (Homo sapiens) (UniProt P47870+P18507+P47869)
# measurement notes: Maximal efficacy for GABA-evoked chloride currents mediated by human Gamma-aminobutyric acid GABA-A receptor alpha2-beta2-gamma2L expressed in Xenopus oocytes
# Format: cell-based
# cond: Oocyte
This section presents compounds with their documented Maximal efficacy values.

{"smiles text": "CCOC(=O)c1cn(-c2ccc(F)cc2)c(-c2ccc(F)cc2)n1", "assayed target": "GABA A receptor alpha-2/beta-2/gamma-2 (Homo sapiens) (UniProt P47870+P18507+P47869)", "unit abbrev": "%", "Maximal efficacy": 569}
{"smiles text": "CCN(CC)C(=O)c1cn(-c2ccc(Cl)cc2Cl)c(-c2ccc(Cl)cc2)n1", "assayed target": "GABA A receptor alpha-2/beta-2/gamma-2 (Homo sapiens) (UniProt P47870+P18507+P47869)", "unit abbrev": "%", "Maximal efficacy": 32.4}
{"smiles text": "CCOC(=O)c1cn(-c2ccc(Cl)cc2)c(-c2ccc(Cl)cc2)n1", "assayed target": "GABA A receptor alpha-2/beta-2/gamma-2 (Homo sapiens) (UniProt P47870+P18507+P47869)", "unit abbrev": "%", "Maximal efficacy": 302}
{"smiles text": "CCOC(=O)c1cn(-c2ccc(Cl)cc2Cl)c(-c2ccc(C)cc2)n1", "assayed target": "GABA A receptor alpha-2/beta-2/gamma-2 (Homo sapiens) (UniProt P47870+P18507+P47869)", "unit abbrev": "%", "Maximal efficacy": 568}
{"smiles text": "CCOC(=O)c1cn(-c2ccccc2)c(-c2ccccc2)n1", "assayed target": "GABA A receptor alpha-2/beta-2/gamma-2 (Homo sapiens) (UniProt P47870+P18507+P47869)", "unit abbrev": "%", "Maximal efficacy": 638}
{"smiles text": "Cc1cn(-c2ccccc2)c(-c2ccccc2)n1", "assayed target": "GABA A receptor alpha-2/beta-2/gamma-2 (Homo sapiens) (UniProt P47870+P18507+P47869)", "unit abbrev": "%", "Maximal efficacy": -25}
{"smiles text": "CCOC(=O)c1cn(-c2ccc(Cl)cc2Cl)c(-c2ccccc2)n1", "assayed target": "GABA A receptor alpha-2/beta-2/gamma-2 (Homo sapiens) (UniProt P47870+P18507+P47869)", "unit abbrev": "%", "Maximal efficacy": 508}
{"smiles text": "CCOC(=O)c1cn(-c2ccc(Cl)cc2Cl)c(-c2ccc(NC(C)=O)cc2)n1", "assayed target": "GABA A receptor alpha-2/beta-2/gamma-2 (Homo sapiens) (UniProt P47870+P18507+P47869)", "unit abbrev": "%", "Maximal efficacy": 209}
{"smiles text": "CCOC(=O)c1cn(-c2cccc(Cl)c2)c(-c2ccccc2)n1", "assayed target": "GABA A receptor alpha-2/beta-2/gamma-2 (Homo sapiens) (UniProt P47870+P18507+P47869)", "unit abbrev": "%", "Maximal efficacy": 350}
{"smiles text": "CCOC(=O)c1cn(-c2ccccc2)c(-c2ccc(Cl)cc2)n1", "assayed target": "GABA A receptor alpha-2/beta-2/gamma-2 (Homo sapiens) (UniProt P47870+P18507+P47869)", "unit abbrev": "%", "Maximal efficacy": 458}
{"smiles text": "CCOC(=O)c1cn(-c2ccc(Cl)cc2Cl)c(-c2ccc(N)cc2)n1", "assayed target": "GABA A receptor alpha-2/beta-2/gamma-2 (Homo sapiens) (UniProt P47870+P18507+P47869)", "unit abbrev": "%", "Maximal efficacy": 406}
